Target: CHIKV pE2-E1 (E3-E2-E1) of the CHIKV-LR strain (Chikungunya virus La Reunion 2006 OPY-1 …, strain)
Assay: cell-based or functional assay
Task for the reader: assign each of the following binders its reported EC50 of neutralisation of CHIKV-LR (FRNT on Vero cells).
Numbers only; they are read as ng/mL.

// EC50 of neutralisation of CHIKV-LR (FRNT on Vero cells) value for CHK-263 (mouse monoclonal antibody) (antibody, V domains shown) VH: QVQLQQSGAELVKPGASVKISCKASGYAFSSYWMNWVKQRPGKGLEWIGQIYPGDGDTNYNGKFKGKATLTADKSSSTAYMQLSSLTSEDSAVYFCARGGLTIDYWGQGTTLTVSS VL: DIVLTQSPATLSVTPGDSVSLSCRASQSISDNLHWYQQKSHESPGLLIKYASQSISGIPSRFSGSGSGTDFTLSINSVETEDFGMYFCQQSNSWPYTFGGGTKLEIK : 5

// EC50 of neutralisation of CHIKV-LR (FRNT on Vero cells) value for CHK-166 (mouse monoclonal antibody) (antibody, V domains shown) VH: EVRLVESGGGLEQPGGSLKLSCAASGFTFSDYFMYWVRQTPEKRLEWVAYISNGGISTFYSDAVKGRFTISRDNARNTLYLQMSRLKSEDTAIYYCVRQVYGQGYFDYWGQGTTLAVSS VL: QIVLIQSPAIMSASLGERVTMTCTASSSVSSSYLHWYQQKPGSSPKLWIYSSFSLASGVPARFSGSGSGTSYSLTISTMEAEDAATYYCHQYLRSPWTFGGGSKLEIK : 154

// EC50 of neutralisation of CHIKV-LR (FRNT on Vero cells) value for CHK-152 (mouse monoclonal antibody) (antibody, V domains shown, mouse VH of CHK-152; mouse IgG heavy-chain constant region; mouse VL of CHK-152; mouse light-chain constant region; also called murine CHK-152; mouse CHK-152) VH: QVQLQQPGAALVKPGASAMMSCKASGYTFTSYWITWVKQRPGQGLEWIGDIYPGTGRTIYKEKFKTKATLTVDTSSSTAFMQLNSLTSEDSAVYYCARGYGSPYYALDYWGQGTSVTVSS VL: DIVLTQSPASLAVSQGQRATISCKASQSVDYDGDSYVNWYQQKPGQSPKLLIYDASNLESGIPARFSGSGSGTDFTLNIHPVEEEDVATYYCQESNEDPRTFGGGTKLEIK : 2

// EC50 of neutralisation of CHIKV-LR (FRNT on Vero cells) value for CHK-102 (mouse monoclonal antibody) (antibody, V domains shown) VH: QVQLQQSGAELVKPGASVKISCKTSGYAFSSFWMHWVKQRPGKGLEWIGQIYPGDGDTNYNGKFKDKATLTADKSSNTAYMQLTSLTSEDSAVYFCARNLLFDYWGQGTTLTVSS VL: EILMTQSPAILSVSPGERVSFSCRASQSIGSNIHWYQQRTNGSPRLLIKYASESISGIPSRFSGSGSGTDFTLSINSVESEDIADYYCQQNNIWPFTFGSGTKLEIK : 14
